Taken from ChEMBL document CHEMBL3351685.

Assignment: determine reported Activity for the given compounds.
- Tested on: WISH
- protocol.description: Cytotoxicity against human WISH cells
- Assay type: cell-based
Give your result in µmol/L as a bare value.

# Activity measured on WISH for item Cn1c(=O)c2c(no[n+]2[O-])n([C@@H]2O[C@H](COCc3ccccc3)[C@@H](OCc3ccccc3)[C@@H]2F)c1=O = 10

The reported Activity value, WISH, for O=c1[nH]c(=O)n([C@@H]2O[C@H](CO)[C@@H](O)[C@H]2O)c2no[n+]([O-])c12 reads 2095

Observed Activity on WISH, entry CC(=O)OC[C@H]1O[C@@H](n2c(=O)n(C)c(=O)c3c2no[n+]3[O-])[C@H](OC(C)=O)[C@H]1OC(C)=O , equals 477

---

- Test system: WISH
- protocol.description: Cytotoxicity against human WISH cells
- Type: cell-based
I'd appreciate it if you could supply Activity values for the items below.
Quick note: give the figure in µmol/L, leave out the unit.

Assay WISH, sample CC(=O)OC[C@H]1O[C@@H](n2c(=O)n(C)c(=O)c3c2no[n+]3[O-])[C@H](OC(C)=O)[C@@H]1OC(C)=O , Activity read: 1460

Entry CC(=O)OC[C@H]1O[C@@H](n2c(=O)[nH]c(=O)c3c2no[n+]3[O-])[C@H](OC(C)=O)[C@@H](OC(C)=O)[C@@H]1OC(C)=O under WISH had Activity of 1300

Entry CCn1c(=O)c2c(no[n+]2[O-])n([C@@H]2O[C@H](COCc3ccccc3)[C@@H](OCc3ccccc3)[C@H]2OCc2ccccc2)c1=O , WISH data, Activity value: 1026

Nc1nc2c(ncn2COCCO)c(=O)[nH]1 tested on WISH gave Activity: 3414

Item Cn1c(=O)c2c(no[n+]2[O-])n([C@@H]2O[C@H](COCc3ccccc3)[C@@H](OCc3ccccc3)[C@H]2OCc2ccccc2)c1=O was tested on WISH; the reported Activity is 1055

Record for CC(=O)OC[C@H]1O[C@H](n2c(=O)n(C)c(=O)c3c2no[n+]3[O-])[C@@H](OC(C)=O)[C@@H]1OC(C)=O under target or system WISH: Activity reported as 378

// compound O=c1[nH]cnc2c1ncn2[C@H]1CC[C@@H](CO)O1 , assay WISH, Activity value: 2646

Bench note, WISH: CCn1c(=O)c2c(no[n+]2[O-])n([C@@H]2O[C@H](COC(C)=O)[C@@H](OC(C)=O)[C@H](OC(C)=O)[C@H]2OC(C)=O)c1=O , Activity reads 1345

// returns Activity for CCn1c(=O)c2c(no[n+]2[O-])n([C@@H]2O[C@H](COC(C)=O)[C@H](OC(C)=O)[C@H]2OC(C)=O)c1=O with WISH; value = 356

Measured Activity for this entry CCn1c(=O)c2c(no[n+]2[O-])n([C@@H]2O[C@H](COC(C)=O)[C@@H](OC(C)=O)[C@H]2OC(C)=O)c1=O on WISH: 377

Tested system WISH; Activity recorded for CC(=O)OC[C@@H]1O[C@@H](n2c(=O)[nH]c(=O)c3c2no[n+]3[O-])[C@H](OC(C)=O)[C@H]1OC(C)=O was 380

Response field Activity (WISH) for item CC(=O)OC[C@H]1O[C@@H](n2c(=O)[nH]c(=O)c3c2no[n+]3[O-])[C@H](OC(C)=O)[C@H]1OC(C)=O : 387

Tested on WISH: O=c1[nH]c(=O)n(COC(CO)CO)c2no[n+]([O-])c12 . Observed Activity: 2279

Tested on WISH: CC(=O)OCCOCn1c(=O)[nH]c(=O)c2c1no[n+]2[O-] . Observed Activity: 2083

Fill in: WISH Activity for O=c1[nH]c(=O)n(COCCO)c2no[n+]([O-])c12 = 2561

Kindly note: WISH, CCn1c(=O)c2c(no[n+]2[O-])n([C@H]2O[C@H](COC(C)=O)[C@@H](OC(C)=O)[C@@H]2OC(C)=O)c1=O , Activity value reported: 1411

---

- Tested on: Vesicular stomatitis virus
- protocol.description: Antiviral activity against vesicular stomatitis virus infected in human WISH cells
- Format: functional
- measurement.parameters: read-out: ED50 (the source's name)
Binarize EC50 at 800 µM; below is Met, at or above is Not met.

# strict comparison: is reported EC50 < 800 µM? input = CC(=O)OCCOCn1c(=O)[nH]c(=O)c2c1no[n+]2[O-]
Met

Determine whether this compound shows EC50 lower than 800 µM (ties excluded): O=c1[nH]c(=O)n([C@@H]2O[C@H](COCc3ccccc3)[C@@H](OCc3ccccc3)[C@H]2OCc2ccccc2)c2no[n+]([O-])c12
Met

EC50 strictly < 800 µM for this compound? CCn1c(=O)c2c(no[n+]2[O-])n([C@@H]2O[C@H](COCc3ccccc3)[C@@H](OCc3ccccc3)[C@H]2OCc2ccccc2)c1=O
Met

Strictly below 800 µM: is that where EC50 of CC(=O)OC[C@H]1O[C@@H](n2c(=O)[nH]c(=O)c3c2no[n+]3[O-])[C@H](OC(C)=O)[C@@H]1OC(C)=O sits?
Met

I wonder whether CCn1c(=O)c2c(no[n+]2[O-])n([C@@H]2O[C@H](COC(C)=O)[C@@H](OC(C)=O)[C@H](OC(C)=O)[C@H]2OC(C)=O)c1=O has EC50 below 800 µM. Can you tell?
Not met

Record CCn1c(=O)c2c(no[n+]2[O-])n([C@@H]2O[C@H](COC(C)=O)[C@@H](OC(C)=O)[C@H]2OC(C)=O)c1=O : is its EC50 strictly below 800 µM?
Not met

---

- Test system: Vesicular stomatitis virus
- protocol.description: Antiviral activity against vesicular stomatitis virus infected in human WISH cells
- Type: functional
- measurement.parameters: read-out: ED50 (the source's name)
pEC50: −log10 of the molar value.
So basically: pEC50 at 3 or higher? That is 1 (yes). Lower than 3? That is 0 (no).

// inclusive: pEC50 at least 3? input: CCn1c(=O)c2c(no[n+]2[O-])n(COC(COC(C)=O)COC(C)=O)c1=O
1 (yes)

Check this molecule for pEC50 at or above 3: O=c1[nH]c(=O)n(COC(CO)CO)c2no[n+]([O-])c12
1 (yes)

# check: pEC50 of Nc1nc2c(ncn2COCCO)c(=O)[nH]1 is greater than or equal to 3
0 (no)

Assess whether reported pEC50 for CC(=O)OC[C@@H]1O[C@@H](n2c(=O)n(C)c(=O)c3c2no[n+]3[O-])[C@H](OC(C)=O)[C@H]1OC(C)=O sits at 3 or higher.
1 (yes)

Kindly determine if pEC50 recorded for CC(=O)OC[C@@H]1O[C@@H](n2c(=O)[nH]c(=O)c3c2no[n+]3[O-])[C@H](OC(C)=O)[C@H]1OC(C)=O is above or exactly 3.
1 (yes)

Determine whether this molecule has pEC50 no lower than 3: Cn1c(=O)c2c(no[n+]2[O-])n([C@@H]2O[C@H](COCc3ccccc3)[C@@H](OCc3ccccc3)[C@@H]2F)c1=O
0 (no)

Tell me whether pEC50 is at least 3 here: CC(=O)OCCOCn1c(=O)n(C)c(=O)c2c1no[n+]2[O-]
1 (yes)

Decide: pEC50 of CC(=O)OC[C@H]1O[C@@H](n2c(=O)n(C)c(=O)c3c2no[n+]3[O-])[C@H](OC(C)=O)[C@@H]1OC(C)=O >= 3?
1 (yes)

Check this molecule for pEC50 at or above 3: CC(=O)OC[C@H]1O[C@H](n2c(=O)[nH]c(=O)c3c2no[n+]3[O-])[C@@H](OC(C)=O)[C@@H]1OC(C)=O
1 (yes)

---

- System: Vesicular stomatitis virus
- protocol.description: Antiviral activity against vesicular stomatitis virus infected in human WISH cells
- Format: functional
- measurement.parameters: read-out: ED50 (the source's name)
quantity.name: EC50 (µM)
Express the result in µM but write the number alone.

Record O=c1[nH]c(=O)n(COCCO)c2no[n+]([O-])c12 ; system Vesicular stomatitis virus; EC50 = 636

Tested on Vesicular stomatitis virus, the item O=c1[nH]c(=O)n([C@@H]2O[C@H](CO)[C@@H](O)[C@H]2O)c2no[n+]([O-])c12 showed EC50 equal to 78

Measured EC50 (Vesicular stomatitis virus), entry CCn1c(=O)c2c(no[n+]2[O-])n([C@H]2O[C@H](COC(C)=O)[C@@H](OC(C)=O)[C@@H]2OC(C)=O)c1=O : 574

Case Cn1c(=O)c2c(no[n+]2[O-])n([C@@H]2O[C@H](COCc3ccccc3)[C@@H](OCc3ccccc3)[C@H]2OCc2ccccc2)c1=O , Vesicular stomatitis virus, EC50 recorded as 473
